- System: Noggin (protein binding on small-molecule microarray)
- Experiment Description: Noggin binders on small-molecule microarray, primary screen, biochemical, 635/667 nm fluorescence (AID 1095);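 note: score merges 667 nm feature fluorescence with signal to noise over triplicate slides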
- Setup Conditions: 635 nm fluorescence, higher = more signal
Reported composite z-score is given for each of the following compounds.
Reported Metric: composite z-score

# Compound, Recorded Result
measured = [
    ("C=C/C=C/[C@@H]1C(=C)CN([C@@H](Cc2ccccc2)C(=O)OC)[C@H]1[C@@H](O)Cc1ccccc1", 0.0905),
    ("C=CCC(OC(C)=O)[C@@H]1[C@@H](N(Cc2cccc3ccccc23)C(=O)c2cccc3ccccc23)c2cc(OCCCO)ccc2N1C(=O)c1ccc2ccccc2c1 (stereo partly drawn)", 0.345),
    ("COCCOC(=O)N1C(=O)[C@@]2(c3cc(C#Cc4ccc(OC)cc4)ccc31)[C@H](c1ccc(OCCO)cc1)N1[C@H](c3ccccc3)[C@H](c3ccccc3)OC(=O)[C@H]1[C@@H]2C(=O)Nc1nc2ccccc2s1", 0.55),
]

----------
- Measurement Target: Torsin-1A (Homo sapiens) (UniProt O14656)
- Sequence (O14656 whole entry, looked up): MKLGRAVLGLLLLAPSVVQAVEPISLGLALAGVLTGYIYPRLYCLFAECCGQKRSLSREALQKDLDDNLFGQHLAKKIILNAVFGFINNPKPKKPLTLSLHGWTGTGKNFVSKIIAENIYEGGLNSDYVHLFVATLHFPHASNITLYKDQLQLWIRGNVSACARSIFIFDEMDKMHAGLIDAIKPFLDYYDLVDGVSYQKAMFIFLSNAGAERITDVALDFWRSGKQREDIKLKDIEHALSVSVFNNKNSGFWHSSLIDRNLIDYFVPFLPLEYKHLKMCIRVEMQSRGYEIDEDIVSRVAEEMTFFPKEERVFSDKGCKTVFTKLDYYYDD
- Experiment Description: torsin A binders from cell lysate, primary screen, small-molecule microarray, wild-type, 635/667 nm (AID 1149)
- Setup Conditions: COS7 hTOR1A-WT lysate, 635 nm fluorescence, higher = more signal
// values below are reported composite z-score

# Line Notation, composite z-score
data = [
    ("C=CCNC(=O)[C@H]1[C@@H]2C(=O)O[C@@H](c3ccccc3)[C@@H](c3ccccc3)N2[C@@H](c2ccc(OCCO)cc2)[C@]12C(=O)Nc1ccc(C#CCNC(N)=O)cc12", 0.207),
    ("CCCNC(=O)[C@@]1(C)c2ccccc2C(=O)N(Cc2ccccc2)[C@H]1c1ccc(CO)cc1", -0.102),
    ("COc1ccc([Si](C)(C)[C@@H]2[C@@H](CC(=O)N3Cc4ccccc4C[C@H]3CO)O[C@]3(C(=O)N(c4ccccc4)c4ccccc43)[C@H]2C)cc1", 1.56),
    ("Cc1c(NC(=O)/C(C#N)=C/c2ccccc2Cl)c(=O)n(-c2ccccc2)n1C", 0.461),
]

----------
- Experiment Description: binders of probe aFST on microarray, primary screen, stem cell growth factor project, biochemical, small-molecule microarray, fluorescence 635/667 (AID 1086);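 note: score merges 667 nm fluorescence with signal-to-noise of each printed compound spot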
- Setup Conditions: higher = more signal
composite z-score by entry:

# Line Notation, composite z-score
records = [
    ("CCOC(=O)C=Cc1ccccc1O", 0.245),
    ("CC(C)C[C@@H]1NC(=O)[C@@H]2C[C@H](C(=O)NCCCCCC[N+](C)(C)C)[C@H](c3cccc(OCCO)c3)N2C1=O", -0.304),
    ("CCOC(=O)C[C@H]1[C@H](OC(=O)c2ccccc2-c2ccccc2)[C@@H](NC(=O)c2ccc3ccccc3n2)c2cc(OCCCO)ccc2N1C(=O)c1ccccc1", 0.377),
    ("CCCCC=C[C@@H](NC(=O)c1ccccc1)c1ccccc1", 0.866),
    ("COc1ccc(C#Cc2ccc3c(c2)[C@]2(C(=O)N3)[C@H](C(=O)Nc3nc4ccccc4s3)[C@H]3C(=O)O[C@H](c4ccccc4)[C@H](c4ccccc4)N3[C@@H]2c2ccccc2OCCO)cc1", 0.723),
    ("COCCOC(=O)N1C(=O)[C@@]2(c3cc(C#CCC(C(=O)OC)C(=O)OC)ccc31)[C@H](c1ccc(OCCO)cc1)N1[C@H](c3ccccc3)[C@H](c3ccccc3)OC(=O)[C@H]1[C@@H]2C(=O)Nc1nc2ccccc2s1", 0.524),
]

----------
- Experiment Description: splicing luciferase reporter signal modulators, primary screen, spliceosome inhibition project, cell-based, HEK293, splice +/- reporter (AID 1101);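 note: HEK293 cells carrying a splicing-competent luciferase reporter gene; test concentration not given here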
- Setup Conditions: luminescence, 24 h, higher = more signal, called active from +8 up or from −8 down
Reported Metric: z-score

# Compound, Recorded Result
rows = [
    ("O=C1C2C=CC(C(O)c3ccco3)N(Nc3ccccc3)C2C(=O)N1c1ccccc1 (configuration not stated)", 0.14),
    ("CCOC(=O)C1=CC[C@@H](c2ccccc2)N(S(=O)(=O)c2ccc(C)cc2)[C@H]1C=Cc1ccccc1", 0.151),
    ("O=C1O[C@H](c2ccccc2)[C@H](c2ccccc2)N2[C@H]1[C@@H](C(=O)N1CCCCCCC1)[C@]1(C(=O)Nc3ccc(C#CC4(O)CCCCCC4)cc31)[C@H]2c1ccccc1OCCO", -0.0867),
    ("CC1(C)C(=O)C(c2ccccc2)=C2CN3C(=O)N(CCc4ccccc4)C(=O)C3(Cc3ccc(F)cc3)C=C21 (configuration not stated)", -0.274),
    ("Cc1ccc(N2C(=O)c3ccccc3[C@](C)(C(=O)NCc3ccccc3)[C@@H]2c2ccc(CO)cc2)nc1", -0.0691),
    ("O=C1OCC=C[C@H]2OC34C=CCN(c5ccc6ccccc6c5)C(=O)[C@H]3N(CCCCCO)C(=O)[C@@H]4[C@@H]12 (some centres not stated)", -0.57),
    ("Cc1ccc(S[C@]2(C(=O)NC(C)C)CC(=O)N(Cc3ccccc3Cl)[C@@H]2c2ccc(CO)cc2)cc1", -0.864),
]

----------
- Test system: glycogen synthase kinase-3 (GSK3A per assay name; protocol says GSK3B)
- Experiment Description: GSK3 binders on small-molecule microarrays, primary screen, biochemical, small-molecule microarray, 635 nm fluorescence, GSK3A (AID 1103); note: the record names both GSK3A and GSK3B
- Setup Conditions: small-molecule microarray binding, fluorescence 635 nm; higher = more signal
Values of composite z-score greater than or equal to 0.7 map to 1; values below map to 0.

# Molecule, Measurement Target, Category Label
records = [
    ("CC(C)[Si]1(C(C)C)OCc2cc(-c3ccc(-c4ccc(Cl)c(Cl)c4)o3)nc(CCc3ccccc3)c21", "glycogen synthase kinase-3 (GSK3A per assay name; protocol says GSK3B)", 0),
    ("[N-]=[N+]=NC[C@H](Cc1ccccc1)NC(=O)c1ccccc1", "glycogen synthase kinase-3 (GSK3A per assay name; protocol says GSK3B)", 0),
    ("Cc1ccc(F)cc1S(=O)(=O)N[C@@H]1CCN(Cc2cccc3[nH]ccc23)C1", "glycogen synthase kinase-3 (GSK3A per assay name; protocol says GSK3B)", 0),
    ("CC(C)C[C@@H]1NC(=O)[C@@H]2C[C@H](C(=O)NCCCCCC[N+](C)(C)C)[C@H](c3cccc(OCCO)c3)N2C1=O", "glycogen synthase kinase-3 (GSK3A per assay name; protocol says GSK3B)", 0),
    ("O=C1O[C@H](c2ccccc2)[C@H](c2ccccc2)N2[C@H]1[C@@H](C(=O)N1CCCCCCC1)[C@]1(C(=O)Nc3ccc(C#CC4(O)CCCCCC4)cc31)[C@H]2c1ccccc1OCCO", "glycogen synthase kinase-3 (GSK3A per assay name; protocol says GSK3B)", 1),
    ("C[C@]1(C(=O)O)c2ccccc2C(=O)N(Cc2ccc(OC(F)(F)F)cc2)[C@H]1c1ccc(CO)cc1", "glycogen synthase kinase-3 (GSK3A per assay name; protocol says GSK3B)", 0),
    ("CCCCC(=O)N(CCN1CCOCC1)[C@@H]1CC(C(=O)NCCO)=C[C@H](Oc2c(I)cc(CO)cc2OC)[C@H]1O", "glycogen synthase kinase-3 (GSK3A per assay name; protocol says GSK3B)", 1),
    ("COc1ccc(C(=O)Nc2cccc(CN3C(=O)[C@]4(O[C@H](CCn5cc([C@H](O)c6ccccc6)nn5)[C@@H]([Si](C)(C)c5ccc(OC)cc5)[C@@H]4C)c4ccccc43)c2)cc1", "glycogen synthase kinase-3 (GSK3A per assay name; protocol says GSK3B)", 0),
    ("COc1cc(NN2C(C(O)c3ccc(I)cc3)C=CC3C(=O)N(c4ccccc4)C(=O)C32)cc(OC)c1OC (stereo unspecified)", "glycogen synthase kinase-3 (GSK3A per assay name; protocol says GSK3B)", 1),
    ("CN(C)C(=O)[C@@]1(Cc2ccccc2N=[N+]=[N-])N=C(c2ccc(OCCCO)cc2)O[C@H]1c1ccccc1", "glycogen synthase kinase-3 (GSK3A per assay name; protocol says GSK3B)", 1),
]

----------
- Measurement Target: Luciferin 4-monooxygenase (Photinus pyralis)
- Experiment Description: firefly luciferase enzyme inhibitors, primary screen, biochemical, luminescence, purified enzyme, 2006 set (AID 1141);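 note: cell-free assay with purified firefly luciferase at 100 ng per well in PBS; test concentration not given here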
- Setup Conditions: SteadyGlo luminescence, 30 min, higher = more signal, called active from +8 up or from −8 down

# Compound, Measurement Target, z-score
measured = [
    ("COC(=O)C(CC#Cc1ccc2c(c1)[C@]1(C(=O)N2)[C@H](c2ccc(O)cc2)N2[C@H](c3ccccc3)[C@H](c3ccccc3)OC(=O)[C@H]2[C@@H]1C(=O)N1CCCCCCC1)C(=O)OC", "Luciferin 4-monooxygenase (Photinus pyralis)", -1.99),
    ("C=CCC(OC(C)=O)[C@@H]1[C@@H](N(Cc2cccc3ccccc23)C(=O)Cc2ccc(F)cc2)c2cc(OCCCO)ccc2N1C(=O)c1ccc(-c2ccccc2)cc1 (stereo not given in full)", "Luciferin 4-monooxygenase (Photinus pyralis)", -0.403),
    ("C=C[C@H](C)[C@H](OC(=O)Nc1ccc(OC)cc1)c1ccc(OCCO)cc1", "Luciferin 4-monooxygenase (Photinus pyralis)", -6.74),
    ("COc1ccc(C(O)C2C=CC3C(=O)N(c4ccccc4)C(=O)C3N2Nc2ccccc2)cc1 (stereo not given)", "Luciferin 4-monooxygenase (Photinus pyralis)", -0.182),
    ("CC(=O)NCCCC[C@@H]1NC(=O)[C@@H]2C[C@H](C(=O)NCCCCCCN)[C@H](c3cccc(OCCO)c3)N2C1=O", "Luciferin 4-monooxygenase (Photinus pyralis)", -0.352),
    ("Cc1ccc(S[C@]2(C(=O)NCC(C)C)CC(=O)N(C3Cc4ccccc4C3)[C@@H]2c2ccc(CO)cc2I)cc1", "Luciferin 4-monooxygenase (Photinus pyralis)", -0.063),
    ("C=CC1c2cc(O)c(OC)cc2CCN1Cc1ccc([N+](=O)[O-])o1 (stereo not given)", "Luciferin 4-monooxygenase (Photinus pyralis)", -1.6),
    ("O=C(NCC(O)CO)[C@@]1(CCS(=O)(=O)c2ccccc2)COC(c2ccc(OCCCO)cc2)=N1 (stereo not given in full)", "Luciferin 4-monooxygenase (Photinus pyralis)", 0.405),
    ("C[C@]1(C(=O)NCCN2CCOCC2)c2ccccc2C(=O)N(Cc2cc(F)cc(C(F)(F)F)c2)[C@H]1c1ccc(CO)cc1", "Luciferin 4-monooxygenase (Photinus pyralis)", 1.05),
    ("COc1cc(NN2C(C(O)c3ccccc3)C=CC3C(=O)N(C)C(=O)C32)cc(OC)c1OC (stereo not given)", "Luciferin 4-monooxygenase (Photinus pyralis)", -1.69),
    ("C=CCN1C(=O)[C@@]2(O[C@@H](CCO)[C@H]([Si](C)(C)c3ccc(OC)cc3)[C@H]2C)c2cc(N3CCOC3=O)ccc21", "Luciferin 4-monooxygenase (Photinus pyralis)", -1.03),
    ("O=C1O[C@H](c2ccccc2)[C@H](c2ccccc2)N2[C@H]1[C@@H](C(=O)Nc1nc3ccccc3s1)[C@]1(C(=O)Nc3ccc(C#CC4=CCCCC4)cc31)[C@H]2c1ccc(O)cc1", "Luciferin 4-monooxygenase (Photinus pyralis)", 0.128),
    ("COC(=O)[C@@]1(Cc2ccc(F)cc2)[C@H]2c3cc(C(=O)N4CCCC4)n(C)c3C[C@H]2CN1C(=O)c1ccccc1", "Luciferin 4-monooxygenase (Photinus pyralis)", 0.745),
    ("COc1ccc(C(O)C2C=CC3C(=O)N(c4ccccc4)C(=O)C3N2Nc2ccccc2F)cc1 (stereo not given)", "Luciferin 4-monooxygenase (Photinus pyralis)", 1.31),
    ("COc1ccc(C(=O)Nc2cccc(CN3C(=O)[C@@]4(O[C@@H](CC(=O)N(CCO)Cc5ccccc5)[C@H]([Si](C)(C)c5ccc(OC)cc5)[C@H]4C)c4ccccc43)c2)cc1", "Luciferin 4-monooxygenase (Photinus pyralis)", -1.75),
]
